Biological target: Taste receptor type 2 member 16 (Homo sapiens, UniProt Q9NYV7)
Sequence (Q9NYV7 whole entry): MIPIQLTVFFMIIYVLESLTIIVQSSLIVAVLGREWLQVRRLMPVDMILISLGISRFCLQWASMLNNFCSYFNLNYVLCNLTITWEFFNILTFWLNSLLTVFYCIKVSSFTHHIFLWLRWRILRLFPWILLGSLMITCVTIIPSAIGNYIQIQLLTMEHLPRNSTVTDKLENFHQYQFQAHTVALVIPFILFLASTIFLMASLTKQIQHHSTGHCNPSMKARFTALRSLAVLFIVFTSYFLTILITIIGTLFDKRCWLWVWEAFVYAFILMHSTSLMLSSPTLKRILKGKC
Test: Activity at human TAS2R16 expressed in HEK-293T-Galpha16-gustducin44 cells assessed as effect on calcium response by FLIPR assay
Assay type: functional, cell-based
pEC50: −log10 of the molar value.

[
  {
    "COMPOUND": "CO[C@@H]1O[C@H](CO)[C@@H](O)[C@H](O)[C@H]1O",
    "SYSTEM": "Taste receptor type 2 member 16 (Homo sapiens, UniProt Q9NYV7)",
    "pEC50": 1.49
  },
  {
    "COMPOUND": "OCc1ccccc1O[C@@H]1O[C@H](CO)[C@@H](O)[C@H](O)[C@H]1O [SALICIN]",
    "SYSTEM": "Taste receptor type 2 member 16 (Homo sapiens, UniProt Q9NYV7)",
    "pEC50": 2.85
  },
  {
    "COMPOUND": "N#C[C@H](O[C@@H]1O[C@H](CO[C@@H]2O[C@H](CO)[C@@H](O)[C@H](O)[C@H]2O)[C@@H](O)[C@H](O)[C@H]1O)c1ccccc1 [AMYGDALIN]",
    "SYSTEM": "Taste receptor type 2 member 16 (Homo sapiens, UniProt Q9NYV7)",
    "pEC50": 1.70
  },
  {
    "COMPOUND": "OC[C@H]1O[C@@H](Oc2ccc(O)cc2)[C@H](O)[C@@H](O)[C@@H]1O [ARBUTIN]",
    "SYSTEM": "Taste receptor type 2 member 16 (Homo sapiens, UniProt Q9NYV7)",
    "pEC50": 2.24
  },
  {
    "COMPOUND": "OC[C@H]1O[C@@H](Oc2ccccc2)[C@H](O)[C@@H](O)[C@@H]1O",
    "SYSTEM": "Taste receptor type 2 member 16 (Homo sapiens, UniProt Q9NYV7)",
    "pEC50": 2.96
  },
  {
    "COMPOUND": "OC[C@H]1O[C@@H](Oc2ccc3ccccc3c2)[C@H](O)[C@@H](O)[C@@H]1O",
    "SYSTEM": "Taste receptor type 2 member 16 (Homo sapiens, UniProt Q9NYV7)",
    "pEC50": 3.00
  },
  {
    "COMPOUND": "O=Cc1ccccc1O[C@@H]1O[C@H](CO)[C@@H](O)[C@H](O)[C@H]1O [HELICIN]",
    "SYSTEM": "Taste receptor type 2 member 16 (Homo sapiens, UniProt Q9NYV7)",
    "pEC50": 2.64
  }
]
